# Measured on: GTPase KRas (Homo sapiens, UniProt P01116, G12D)
# Sequence (P01116 whole entry G12D): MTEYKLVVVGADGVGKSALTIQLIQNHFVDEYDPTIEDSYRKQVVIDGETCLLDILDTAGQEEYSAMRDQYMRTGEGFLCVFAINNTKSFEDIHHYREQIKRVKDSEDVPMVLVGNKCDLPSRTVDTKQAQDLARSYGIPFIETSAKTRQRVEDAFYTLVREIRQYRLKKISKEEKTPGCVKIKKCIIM
# Protocol: Inhibition of KRAS G12D mutant in human ASPC1 cells assessed as reduction in ERK phosphorylation measured after 4 hrs by HTRF assay
# Format: cell-based
pIC50: −log10 of the molar value.
Outcome measure: pIC50

- Nc1cc2ccccc2c(-c2c(Cl)cc3c(N4C[C@H]5CC[C@@H](C4)N5)nc(OC[C@@]45CCCN4C[C@H](F)C5)nc3c2F)n1: 5.53
- N#Cc1c(N)sc2c(F)ccc(-c3c(Cl)cc4c(N5C[C@H]6CC[C@@H](C5)N6)ncnc4c3F)c12: 5.97
- Nc1nc2c(-c3c(Cl)cc4c(N5C[C@H]6CC[C@@H](C5)N6)nc(OC[C@@]56CCCN5C[C@H](F)C6)nc4c3F)ccc(F)c2s1: 6.83
- N#Cc1c(N)sc2c(F)ccc(-c3c(Cl)cc4c(N5C[C@H]6CC[C@@H](C5)N6)nc(OCC5(CN6CC[C@@H](F)C6)CC5)nc4c3F)c12: 7.52
- Cc1cc(N)nc(-c2c(Cl)cc3c(N4C[C@H]5CC[C@@H](C4)N5)nc(OC[C@@H]4CCCN4C)nc3c2F)c1C(F)(F)F: 6.03
- N#Cc1c(N)sc2c(F)ccc(-c3c(Cl)cc4c(N5C[C@H]6CC[C@@H](C5)N6)nc(OC[C@@]56CCCN5C[C@H](F)C6)nc4c3F)c12: 8.37
- Cc1cc(N)nc(-c2c(Cl)cc3c(N4C[C@H]5CC[C@@H](C4)N5)nc(OC[C@@]45CCCN4C[C@H](F)C5)nc3c2F)c1C(F)(F)F: 7.05

* * *

Form field: pIC50 (one value per entry).
# Test system: AGS
# Protocol: Antiproliferative activity against human AGS cells assessed as reduction in cell viability measured after 5 days by Cell-Titer Glo assay
# Format: functional, cell-based
# Experimental conditions: 120 h
pIC50: −log10 of the molar value.
Outcome measure: pIC50

- N#Cc1c(N)sc2c(F)ccc(-c3c(C(F)(F)F)cc4c(N5C[C@H]6CC[C@@H](C5)N6)nc(OC[C@@]56CCCN5C[C@H](F)C6)nc4c3F)c12: 9.15
- N#Cc1c(N)sc2c(F)ccc(-c3c(Cl)cc4c(N5C[C@H]6CC[C@@H](C5)N6)nc(OC[C@@]56CCCN5C[C@H](F)C6)nc4c3F)c12: 8.92
- C#Cc1c(F)ccc2cc(O)cc(-c3ncc4c(N5C[C@H]6CC[C@@H](C5)N6)nc(OC[C@@]56CCCN5C[C@H](F)C6)nc4c3F)c12: 8.49

* * *

Recorded pIC50 values for a group of molecules are listed next.
# Protocol: Antiproliferative activity against human GP2d cells assessed as reduction in cell viability measured after 5 days by Cell-Titer Glo assay
# Format: functional, cell-based
# Experimental conditions: 120 h
pIC50: −log10 of the molar value.
Outcome measure: pIC50

• N#Cc1c(N)sc2c(F)ccc(-c3c(C(F)(F)F)cc4c(N5C[C@H]6CC[C@@H](C5)N6)nc(OC[C@@]56CCCN5C[C@H](F)C6)nc4c3F)c12 = 9.70
• C#Cc1c(F)ccc2cc(O)cc(-c3ncc4c(N5C[C@H]6CC[C@@H](C5)N6)nc(OC[C@@]56CCCN5C[C@H](F)C6)nc4c3F)c12 [MRTX-1133] = 9.40
• N#Cc1c(N)sc2c(F)ccc(-c3c(Cl)cc4c(N5C[C@H]6CC[C@@H](C5)N6)nc(OC[C@@]56CCCN5C[C@H](F)C6)nc4c3F)c12 = 9.70
